Recorded values, source PubChem BioAssay.

Test: MRP1 drug-resistance reversers in H69AR cells – cell-based, doxorubicin co-treatment, pilot screen (AID 601)
Settings: H69AR cells + 2 uM doxorubicin, CellTiter-Glo, 72 h; at 10 µM; active compounds read high
quantity.name: differential viability (reversal) (%)
Write it as a number; the unit % goes unstated.

Guide cases for differential viability (reversal), answers given:
compound=OCCOCC#CCN1CCOCC1 data_value=3.84
compound="COc1cc(C2NCc3ccccc3-n3cccc32)ccc1O (stereo not given)" data_value=9.64
compound=CCNc1ccc(P(=S)(N(C)C)N(C)C)cc1 data_value=-16.7
compound=CC(=NCCCN1CCOCC1)c1c(O)n(-c2ccccc2C)c(=O)[nH]c1=O data_value=5.16

// switching to the query compound
Using the record for `CC[C@@H](CO)NC(=O)[C@@H]1C=C2c3cccc4c3c(cn4C)C[C@H]2N(C)C1` , report its differential viability (reversal).
-1.17
